Hey, just so you know, these numbers are from the Bradley open melting point set (2014).

PROPERTY NAME: melting point (°C)

# COMPOUND, NUMERIC READOUT
records = [
    ("CC(C)(S)[C@@H](N)C(=O)O [Penicillamine]", 198),
]

A: Oc1cc(C(F)(F)F)nc2ccc(Cl)cc12 [6-chloro-4-hydroxy-2-(trifluoromethyl)quinoline]
B: CC(C(=O)O)c1ccccc1 (stereo not given)
C: N#CCCCCCCCCCCC#N
D: COc1ccc(C(C)=O)c(OC)c1
# input Could you please sort these 4 entries by melting point from high to low? Thanks in advance for listing the labels in the requested order.
# output A, D, C, B

###

PROPERTY NAME: melting point (°C)

Consider the following illustrative entries.
# COMPOUND, melting point (°C)
measured = [
    ("[2H]c1c([2H])c([2H])c2c(c1[2H])c([2H])c([2H])c1c3c([2H])c([2H])c([2H])c([2H])c3c([2H])c([2H])c21", 255),
    ("Sc1ccccc1", -15),
    ("CCC(=O)c1cc(O)ccc1O [2',5'-dihydroxypropiophenone]", 98),
    ("CCOC(=O)Nc1ccc2c(c1)N(C(=O)CCN1CCOCC1)c1ccccc1S2", 156),
    ("O=C1CCCCC1c1ccccc1 (stereo not drawn)", 58),
]

A: COc1cccc(-c2nnn[nH]2)c1
B: O=C(OC(=O)/C(=C/c1ccccc1)Cc1ccccc1)/C(=C/c1ccccc1)Cc1ccccc1 [(2E)-2-benzyl-3-phenylprop-2-enoic anhydride]
# input Of the two listed items, A and B , which carries the larger melting point figure? Give the label of your selection.
# output A

a: CCOC(=O)c1ccc(CBr)cc1 [ethyl 4-(bromomethyl)benzoate]
b: O=C(NCCCCc1ccccc1)c1cc([N+](=O)[O-])cc([N+](=O)[O-])c1 [benzamide, 3,5-dinitro-N-(4-phenylbutyl)-]
# input Of the two listed items, a and b , which carries the larger melting point figure? Give the label of your selection.
# output b

A: Nc1c(Br)cccc1Br
B: ON=C(Cl)c1ccc(Cl)cc1 [4-chloro-N-hydroxybenzenecarboximidoyl chloride]
C: CC12CCC(C(=O)/C(=C\c3ccccc3[N+](=O)[O-])C1=O)C2(C)C (stereo not drawn)
# input Reorder the items by melting point, least to greatest. Thanks in advance for listing the labels in the requested order.
# output A, C, B

1: COc1cccc(C(=O)O)c1O [2-hydroxy-3-methoxybenzoic acid]
2: O=C1[C@H]2C[C@@H]3C[C@@H](C[C@H]1C3)C2
3: COC(=O)c1ccc(F)cc1O [methyl 4-fluorosalicylate]
4: COC(=O)c1ccc(C=O)cc1 [methyl 4-formylbenzoate]
5: C=CCI [3-iodo-1-propene]
# input Reorder the items by melting point, least to greatest. Thanks in advance for listing the labels in the requested order.
# output 5, 3, 4, 1, 2

###

PROPERTY NAME: melting point (°C)

P: Cc1ccc(-c2nc(-c3ccccc3)cs2)cc1
Q: Nc1c(C(=O)O)cccc1C(F)(F)F
# input From the items above, decide which of P and Q has the lower melting point reading. Give the label of your selection.
# output P
(P: 58 °C, Q: 155 °C)

1: O=C(Cl)c1cccc2ccccc12 [1-naphthoyl chloride]
2: NC(=O)c1ccccc1O [salicylamide]
# input From the items above, decide which of 1 and 2 has the lower melting point reading. Give the label of your selection.
# output 1

P: COC(=O)c1cc(OC)cc(OC)c1 [methyl_3,5-dimethoxybenzoate]
Q: O=CN1CCOCC1
R: Ic1ccccc1
# input Could you please sort these 3 entries by melting point from high to low? Thanks in advance for listing the labels in the requested order.
# output P, Q, R

###

PROPERTY NAME: melting point (°C)

# COMPOUND, UNITS TEXT, melting point
records = [
    ("CCC1C(=O)CCC1=O", "°C", 169),
    ("OB(O)c1ccnc(Cl)c1Cl", "°C", 137),
    ("Nc1cc(C(=O)O)ccc1Cl", "°C", 216),
]

1: CCCCCCc1ccc(O)cc1O
2: BrC(Br)C(Br)Br [1,1,2,2-Tetrabromoethane]
# input Of the two listed items, 1 and 2 , which carries the larger melting point figure? Give the label of your selection.
# output 1
(1: 66 °C, 2: 0 °C)

###

PROPERTY NAME: melting point (°C)

# MOLECULE, NUMERIC READOUT
data = [
    ("NCCN [ethylenediamine]", 10),
]

I: CN(C)c1ccncc1 [4-(dimethylamino)pyridine]
II: OCC=Cc1ccccc1 [cinnamyl_alcohol]
III: O=C(O)Cc1cccc(C(F)(F)F)c1 [3-(trifluoromethyl)phenylacetic acid]
# input Could you please sort these 3 entries by melting point from high to low? Thanks in advance for listing the labels in the requested order.
# output I, III, II
(I: 112 °C, III: 78 °C, II: 34 °C)

1: c1ccc2c(c1)CC1(OCCO1)c1ccccc1CC21OCCO1
2: c1ccc2c(c1)ccc1cc3c(ccc4ccccc43)cc12 [dibenz[a,h]anthracene]
3: COc1ccc(N)c(C)c1 [4-methoxy-2-methylaniline]
4: Cc1cccc2c1Cc1ccccc1-2 [1-methylfluorene]
# input Could you please sort these 4 entries by melting point from high to low? Thanks in advance for listing the labels in the requested order.
# output 2, 1, 4, 3

1: CC(NC(=O)COCCN1C(=O)c2ccccc2C1=O)C(=O)NC(CCC(=O)O)C(=O)O (stereo unspecified)
2: C[C@@H](O)[C@@H](C)O [(2R,3R)-Butane-2,3-diol]
# input Of the two listed items, 1 and 2 , which carries the larger melting point figure? Give the label of your selection.
# output 1
(1: 194 °C, 2: 16 °C)

a: IC(I)I [iodoform]
b: C[C@H]1C[C@H]2[C@@H]3CCC4=CC(=O)C=C[C@]4(C)[C@@]3(F)[C@@H](O)C[C@]2(C)[C@@]1(O)C(=O)CO [betamethasone]
# input Of the two listed items, a and b , which carries the larger melting point figure? Give the label of your selection.
# output b

A: CC12CCC(/C(=C/Nc3ccccc3)C1=O)C2(C)C (stereo unspecified)
B: CCCCCCCCCCC [N-undecane]
C: O=C(O)C(O)c1ccccc1Cl (stereo unspecified) [2-chloromandelic acid]
D: CC(O)CC(=O)O (stereo unspecified) [3-hydroxybutyric acid]
E: CCCCCCCCCCCCCCc1ccccc1 [N-tetradecylbenzene]
# input Could you please sort these 5 entries by melting point from high to low? Thanks in advance for listing the labels in the requested order.
# output A, C, D, E, B

A: O=C(O)c1cc([N+](=O)[O-])ccc1Cl [2-chloro-5-nitrobenzoic acid]
B: CS(=O)(=O)OCCCCOS(C)(=O)=O [busulfan]
C: C1CCSC1 [tetrahydrothiophene]
# input Could you please sort these 3 entries by melting point from high to low? Thanks in advance for listing the labels in the requested order.
# output A, B, C
(A: 166 °C, B: 116 °C, C: -96 °C)

1: CCc1nc(N)nc(Cl)c1C [4-chloro-6-ethyl-5-methylpyrimidin-2-amine]
2: CC(C)(C)OC(=O)NCC(=O)O [N-boc-glycine]
3: Cc1ccc2oc(-c3ccc(O)cc3)cc(=O)c2c1 [4'-hydroxy-6-methylflavone]
# input Reorder the items by melting point, least to greatest. Thanks in advance for listing the labels in the requested order.
# output 2, 1, 3
(2: 89 °C, 1: 139 °C, 3: 241 °C)

I: Nc1ccc(N=Nc2ccccc2)c(N)n1 [phenazopyridine]
II: CCC1CO1 (stereo unspecified) [2-Ethyloxirane]
# input Of the two listed items, I and II , which carries the larger melting point figure? Give the label of your selection.
# output I
(I: 139 °C, II: -60 °C)

###

PROPERTY NAME: melting point (°C)

A: C=C[Si]1(C)O[Si](C)(C=C)O[Si](C)(C=C)O[Si](C)(C=C)O1 (stereo unspecified) [2,4,6,8-tetramethyl-2,4,6,8-tetravinylcyclotetrasiloxane]
B: O[C@@H]1CCC[C@@H]1O [(1R,2S)-Cyclopentane-1,2-diol]
C: COc1ccc(C=CC(=O)c2ccccc2)c(OC)c1 [2,4-Dimethoxychalcone]
# input Hey, can you sort those molecules up there by melting point, smallest first? Thanks in advance for listing the labels in the requested order.
# output A, B, C

###

PROPERTY NAME: melting point (°C)

Consider the following illustrative entries.
# COMPOUND, melting point (°C)
records = [
    ("CC(=O)O[C@@H]1CCC2(C)C(CCC3C2CCC2(C)C3CC[C@]2(O)/C=C/c2ccccc2)C1 (some centres undefined)", 162),
    ("CCCCCCCCCCCCCC(=O)O", 55),
    ("CC1(C)[C@H]2CC[C@]1(C)[C@H](O)C2", 207),
    ("Cc1cc(C=O)c(C)n1-c1ccc(C(F)(F)F)cc1", 86),
]

P: NC(c1ccccc1)c1ccccc1 [benzhydrylamine]
Q: OCc1c2ccccc2cc2ccccc12
R: O=CNc1ccccc1 [formanilide]
S: CC1(C)C(=O)[C@@]2(C)CC[C@@H]1C2
# input Could you please sort these 4 entries by melting point from high to low? Thanks in advance for listing the labels in the requested order.
# output Q, R, P, S
(Q: 163 °C, R: 47 °C, P: 12 °C, S: 6 °C)
